Hi there, I'd appreciate the recorded half-life for every entry that follows.
# method: Half life in rat at 2 mg/kg, po or 0.5 mg/kg, iv administered as infusion for 10 mins
# Assay type: ADME, organism-based
# conditionNotes: in vivo
Provide only the numeric value, understood in min.

Any idea what half-life was measured for COc1cc(OC)c2cc(-c3cn4nc(OC)sc4n3)oc2c1 ? 192

Any idea what half-life was measured for COc1cc(OCc2cccc(OCc3ccccc3)c2)c2cc(-c3cn4nc(OC)sc4n3)oc2c1 ? 414

---

# assayedSystem: hERG (KCNH2) (Homo sapiens, UniProt Q12809)
# Sequence (Q12809 whole entry): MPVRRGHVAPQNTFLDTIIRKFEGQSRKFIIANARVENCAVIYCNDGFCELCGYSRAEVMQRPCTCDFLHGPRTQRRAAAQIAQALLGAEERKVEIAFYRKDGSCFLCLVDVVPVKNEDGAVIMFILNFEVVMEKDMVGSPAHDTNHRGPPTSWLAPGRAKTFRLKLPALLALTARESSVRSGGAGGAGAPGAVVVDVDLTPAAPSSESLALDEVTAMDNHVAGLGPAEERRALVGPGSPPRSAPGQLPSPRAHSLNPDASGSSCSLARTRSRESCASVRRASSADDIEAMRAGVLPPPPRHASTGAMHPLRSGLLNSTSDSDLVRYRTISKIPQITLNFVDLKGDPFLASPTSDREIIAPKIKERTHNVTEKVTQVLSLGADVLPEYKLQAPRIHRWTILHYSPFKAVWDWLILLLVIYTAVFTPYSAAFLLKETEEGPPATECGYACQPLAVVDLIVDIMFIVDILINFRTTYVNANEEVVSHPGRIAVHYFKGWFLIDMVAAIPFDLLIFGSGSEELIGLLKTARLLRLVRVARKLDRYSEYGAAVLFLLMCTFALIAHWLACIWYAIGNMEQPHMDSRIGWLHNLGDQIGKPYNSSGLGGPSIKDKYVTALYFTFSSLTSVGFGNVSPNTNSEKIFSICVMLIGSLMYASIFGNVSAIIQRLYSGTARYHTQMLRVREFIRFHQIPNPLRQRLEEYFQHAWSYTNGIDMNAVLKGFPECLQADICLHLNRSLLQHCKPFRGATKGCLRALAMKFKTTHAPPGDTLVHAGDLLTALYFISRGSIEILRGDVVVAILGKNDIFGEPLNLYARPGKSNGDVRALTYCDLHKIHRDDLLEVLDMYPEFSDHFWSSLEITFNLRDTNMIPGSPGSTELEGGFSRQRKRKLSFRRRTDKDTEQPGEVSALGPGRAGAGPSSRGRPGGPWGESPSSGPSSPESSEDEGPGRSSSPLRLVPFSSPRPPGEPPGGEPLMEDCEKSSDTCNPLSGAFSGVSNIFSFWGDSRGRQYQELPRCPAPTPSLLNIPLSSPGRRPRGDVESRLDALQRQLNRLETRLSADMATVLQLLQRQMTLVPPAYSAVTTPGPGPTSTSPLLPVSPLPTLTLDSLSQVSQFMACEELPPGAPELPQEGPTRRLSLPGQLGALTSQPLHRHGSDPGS
# method: Inhibition of human ERG at 10 uM by patch clamp method
observationType: inhibition at 10 µM

Any idea what inhibition at 10 µM was measured for COc1cc(OCc2cccc(OCc3ccccc3)c2)c2cc(-c3cn4nc(OC)sc4n3)oc2c1 ? ≤ 10%

---

# method: Half life in rat liver microsomes
# Assay type: ADME, Microsome
observationType: half-life (min)
Provide only the numeric value, understood in min.

Any idea what half-life was measured for COc1cc(OC)c2cc(-c3cn4nc(OC)sc4n3)oc2c1 ? 22

---

# method: Stability in rat liver microsomes assessed as parent compound remaining measured after 10 mins
# Format: ADME, Microsome
# conditionNotes: read-out: Stability
# TRUE = remaining at 10 min below 40% (exclusive); FALSE = remaining at 10 min at/above 40%

Lab note: remaining at 10 min threshold 40%. Does this compound come in strictly under it? CCSc1nn2cc(-c3cc4ccccc4o3)nc2s1 TRUE

Lab note: remaining at 10 min threshold 40%. Does this compound come in strictly under it? COc1cc(OCc2ccc(C(F)(F)F)cc2)c2cc(-c3cn4nc(OC)sc4n3)oc2c1 FALSE

Lab note: remaining at 10 min threshold 40%. Does this compound come in strictly under it? COc1nn2cc(-c3cc4ccc(OCc5ccccc5)cc4o3)nc2s1 FALSE

Lab note: remaining at 10 min threshold 40%. Does this compound come in strictly under it? COc1nn2cc(-c3cc4ccccc4o3)nc2s1 TRUE

Lab note: remaining at 10 min threshold 40%. Does this compound come in strictly under it? COc1cc(OCc2cccc(O)c2)c2cc(-c3cn4nc(OC)sc4n3)oc2c1 FALSE

Lab note: remaining at 10 min threshold 40%. Does this compound come in strictly under it? COc1cc(OCc2ccc(OCc3ccccc3)cc2)c2cc(-c3cn4nc(OC)sc4n3)oc2c1 FALSE

Lab note: remaining at 10 min threshold 40%. Does this compound come in strictly under it? COc1nn2cc(-c3cc4c(OCc5ccccc5)cccc4o3)nc2s1 FALSE

Lab note: remaining at 10 min threshold 40%. Does this compound come in strictly under it? COc1cccc(COc2cc(OC)cc3oc(-c4cn5nc(OC)sc5n4)cc23)c1 TRUE

Lab note: remaining at 10 min threshold 40%. Does this compound come in strictly under it? CCc1nn2cc(-c3cc4ccccc4o3)nc2s1 TRUE

Lab note: remaining at 10 min threshold 40%. Does this compound come in strictly under it? COc1ccc2oc(-c3cn4nc(OC)sc4n3)cc2c1 TRUE

Lab note: remaining at 10 min threshold 40%. Does this compound come in strictly under it? COc1nn2cc(-c3cc4cccc(OC)c4o3)nc2s1 TRUE

Lab note: remaining at 10 min threshold 40%. Does this compound come in strictly under it? COc1cc(OCc2cccc(Sc3ccccc3)c2)c2cc(-c3cn4nc(OC)sc4n3)oc2c1 FALSE

Lab note: remaining at 10 min threshold 40%. Does this compound come in strictly under it? COc1cc(OCc2ccccc2OC)c2cc(-c3cn4nc(OC)sc4n3)oc2c1 TRUE

Lab note: remaining at 10 min threshold 40%. Does this compound come in strictly under it? COc1cc(OCCOCc2ccccc2)c2cc(-c3cn4nc(OC)sc4n3)oc2c1 TRUE

Lab note: remaining at 10 min threshold 40%. Does this compound come in strictly under it? COc1nn2cc(-c3cc4c(OC)ccc(OC)c4o3)nc2s1 TRUE

Lab note: remaining at 10 min threshold 40%. Does this compound come in strictly under it? COc1cc(OCc2cccc(COc3ccccc3)c2)c2cc(-c3cn4nc(OC)sc4n3)oc2c1 FALSE

Lab note: remaining at 10 min threshold 40%. Does this compound come in strictly under it? COc1cc(OCc2cccc(Oc3ccccc3)c2)c2cc(-c3cn4nc(OC)sc4n3)oc2c1 FALSE

Lab note: remaining at 10 min threshold 40%. Does this compound come in strictly under it? c1ccc2oc(-c3cn4nc(C5CC5)sc4n3)cc2c1 FALSE

Lab note: remaining at 10 min threshold 40%. Does this compound come in strictly under it? COc1cc(OCc2cccc(OCc3ccccc3)c2)c2cc(-c3cn4nc(OC)sc4n3)oc2c1 FALSE

Lab note: remaining at 10 min threshold 40%. Does this compound come in strictly under it? COc1cc(OC)c2cc(-c3cn4nc(OC)sc4n3)oc2c1 FALSE

Lab note: remaining at 10 min threshold 40%. Does this compound come in strictly under it? COc1cc(OCc2cccc(C(F)(F)F)c2)c2cc(-c3cn4nc(OC)sc4n3)oc2c1 FALSE

Lab note: remaining at 10 min threshold 40%. Does this compound come in strictly under it? CNc1nn2cc(-c3cc4ccccc4o3)nc2s1 TRUE
